# subjectOfTest: EGFR (human)
measuredProperty: pIC50
Field pIC50 (float): negative decimal logarithm of the concentration in molar.

Solved cases below.
Cc1ccccc1Cn1ccc2c(Nc3cccc(Br)c3)nc(N)nc21    4.80
Nc1nc(Nc2cccc(Br)c2)c2ccn(Cc3ccc(Cl)cc3Cl)c2n1    4.82
Nc1nc(Nc2cccc(Br)c2)c2ccn(Cc3ccc4ccccc4c3)c2n1    4.69
Nc1nc(Nc2cccc(Br)c2)c2ccn(Cc3ccc(-c4ccccc4)cc3)c2n1    4.88
Nc1nc(Nc2cccc(Br)c2)c2ccn(Cc3cccc4ccccc34)c2n1    4.44
Nc1nc(Nc2cccc(Br)c2)c2ccn(Cc3ccc(Cl)cc3)c2n1    4.79
Nc1nc(Nc2cccc(Br)c2)c2ccn(Cc3ccccc3Cl)c2n1    4.05
Nc1nc(Nc2cccc(Br)c2)c2ccn(Cc3ccccc3)c2n1    4.30

Problem: Form entry - test system: EGFR (human); read-out: pIC50; compound: Nc1nc(Nc2cccc(Br)c2)c2ccn(Cc3ccc(Cl)c(Cl)c3)c2n1
Solution: 4.72

Problem: Form entry - test system: EGFR (human); read-out: pIC50; compound: COc1cc(Cn2ccc3c(Nc4cccc(Br)c4)nc(N)nc32)cc(OC)c1OC
Solution: 4.41

Problem: Form entry - test system: EGFR (human); read-out: pIC50; compound: COc1ccc(OC)c(Cn2ccc3c(Nc4cccc(Br)c4)nc(N)nc32)c1
Solution: 4.39
